Target: H. sapiens SLC2A9 variant 2 (GLUT9B) (Homo sapiens, UniProt Q9NRM0)
Sequence (Q9NRM0 1-511 isoform Q9NRM0-2): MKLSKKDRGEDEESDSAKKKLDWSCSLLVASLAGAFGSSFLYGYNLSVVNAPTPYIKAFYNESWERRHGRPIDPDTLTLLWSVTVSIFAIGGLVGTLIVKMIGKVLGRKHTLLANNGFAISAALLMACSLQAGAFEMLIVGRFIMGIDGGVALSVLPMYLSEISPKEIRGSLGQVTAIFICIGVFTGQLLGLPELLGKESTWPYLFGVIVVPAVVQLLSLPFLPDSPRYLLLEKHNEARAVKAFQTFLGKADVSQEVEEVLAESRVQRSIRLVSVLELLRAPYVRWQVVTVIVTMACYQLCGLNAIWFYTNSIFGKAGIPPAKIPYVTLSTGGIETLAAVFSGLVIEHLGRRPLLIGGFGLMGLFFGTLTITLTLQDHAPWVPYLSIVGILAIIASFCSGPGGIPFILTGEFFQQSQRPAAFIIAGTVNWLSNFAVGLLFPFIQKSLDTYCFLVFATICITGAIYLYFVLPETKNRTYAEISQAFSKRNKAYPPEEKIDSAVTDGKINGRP
Assay: GLUT9 functional assay: uric acid uptake in HEK293T cells, allantoin formation by MS/MS as proxy of GLUT9B inhibition
Assay type: cell-based
Details: 15 minute assay; HEK293T cells stably expressing GLUT9B and transiently A. oryzae uricase; uric acid 0.3 mM, 37° C.; read-out: 15 min IC50
Description: Uric acid stocks (9 mM, Millipore-Sigma, U0881) were generated in 125 mM choline chloride (Millipore-Sigma, C7017) and the concentration was determined at 293 nm using a molar extinction coefficient of 9600 M- ^1 cm- ^1) after collecting the absorbance spectra from 220-350 nm. Allantoin stocks (12 mM Toronto Research Chemicals, A540500) were generated in LCMS grade water (Thermo Scientific, 51140). The concentration of allantoin was determined by qNMR (Michigan State University). […]
MEASURE_NAME: IC50

O=C(O)C1(O)CCN(c2nc(CCC(F)(F)F)cnc2-c2cc(F)c3occc3c2)CC1 [Compound 91]    < 0.5 µM
COCCOc1ncc(-c2ncc(CCC(F)(F)F)nc2N2CCC(C(=O)O)CC2)cc1F [Compound 98]    > 2 µM
CCCCc1cnc(-c2ccc(OC)cc2)c(-c2ccc(C(=O)O)cn2)c1 [Compound 24]    > 2 µM
CCCCc1cnc(-c2ccc(OC)s2)c(N2CCC(C(=O)O)CC2)n1 [Compound 43]    > 2 µM
COCCOCCOc1ccc(-c2ncc(CCCC(F)(F)F)nc2N2CCC(C(=O)O)CC2)cc1 [Compound 117]    0.5 to 2 µM
CCCCc1cnc(-c2ccc3c(c2)CC(C)(C)O3)c(N2CCC(C(=O)O)CC2)n1 [Compound 79]    > 2 µM
O=C(O)C1CCN(c2nc(CCCC(F)F)cnc2-c2ccc3occc3c2)CC1 [Compound 142]    < 0.5 µM

Next up:
What value of measured IC50 is listed for COCCOc1ccc(-c2ncc(CCCC(F)(F)F)nc2N2CCC(C(=O)O)CC2)cc1 [Compound 34] ?
0.5 to 2 µM

====

target: H. sapiens SLC2A9 variant 2 (GLUT9B) (Homo sapiens); experiment: GLUT9 functional assay: uric acid uptake in HEK293T cells, allantoin formation by MS/MS as proxy of GLUT9B inhibition; assay type: cell-based; settings: 15 minute assay; HEK293T cells stably expressing GLUT9B and transiently A. oryzae uricase; uric acid 0.3 mM, 37° C.; read-out: 15 min IC50
pIC50: −log10 of the molar value.
Record form. Attribute: pIC50. Fill in for each entry.

Some compounds with recorded pIC50:
COCCCCc1cnc(-c2ccc3occc3c2)c(N2CCC(C(=O)O)CC2)n1    > 6.30
COCCOc1ccc(-c2ncc(CCC(F)(F)F)nc2N2CCC(C(=O)O)CC2)cc1    5.70 to 6.30
O=C(O)C1CCN(c2nc(CCC(F)(F)F)cnc2-c2ccc(OCCO)cc2)CC1    < 5.70
O=C(O)C1CCN(c2nc(CCC(F)(F)F)cnc2-c2ccncc2)CC1    < 5.70
CCC(F)(F)Cc1cnc(-c2ccc3occc3c2)c(N2CCC(C(=O)O)CC2)n1    > 6.30

List reported pIC50 for each of these compounds:
1. O=C(O)C1CCN(c2nc(CCC(F)(F)C(F)(F)F)cnc2-c2ccc3c(c2)OCO3)CC1
2. CCC(F)(F)Cc1cnc(-c2ccc(OCC3CC3)cc2)c(N2CCC(C(=O)O)CC2)n1
3. CC(F)(F)CCc1cnc(-c2ccc3c(c2)CCO3)c(N2CCC(C(=O)O)CC2)n1
4. O=C(O)C1CCN(c2nc(CCCC(F)(F)F)cnc2-c2ccc(OC(F)(F)F)cc2)CC1
5. COCc1cnc(-c2cc(F)c3ccn(C)c3c2)c(N2CCC(C(=O)O)CC2)n1

1. > 6.30
2. 5.70 to 6.30
3. 5.70 to 6.30
4. > 6.30
5. > 6.30

Answer for every listed entry: what is its pIC50? The entries follow.
1. COCCOc1ccc(-c2ncc(CCCC(F)(F)F)nc2N2CCC(O)(C(=O)O)CC2)cc1
2. CCCCc1cnc(-c2ccc(OCCOC)cc2)c(N2CCC(C(=O)O)CC2)n1
3. O=C(O)C1CCN(c2nc(CCCC(F)(F)F)cnc2-c2cc(F)c3occc3c2)CC1

1: < 5.70; 2: > 6.30; 3: > 6.30

Respectfully, I request pIC50 for each entry included below.
1. CCCCc1cnc(-c2ccc(OC)cc2)c(-c2ccc3c(C(=O)O)coc3c2)c1
2. CCCCc1cnc(-c2cc(F)c(OCCOC)c(F)c2)c(N2CCC(C(=O)O)CC2)n1

> 6.30
5.70 to 6.30

// each listed compound needs a value for pIC50
1. O=C(O)C1CCN(c2nc(CCCC(F)(F)F)cnc2-c2ccc3c(c2)CCCO3)CC1
2. COCc1nc(N2CCC(C(=O)O)CC2)c(-c2cc(F)c3c(ccn3C)c2)nc1Cl

1: 5.70 to 6.30; 2: < 5.70
